Test system: RARa:RXR (NR concentration 270 nM, RXRa partner concentration 90 nM)
Experiment: PBM binding z-score (relative to random genomic background probes); higher = stronger binding; sequences stand for … in GC…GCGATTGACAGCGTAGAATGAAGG
Threshold rule: PBM binding z-score greater than or equal to 1 is condition met; below that, condition not met.

input: Determine whether this sequence has PBM binding z-score no lower than 1: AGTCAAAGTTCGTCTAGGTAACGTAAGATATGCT
output: condition met

input: Is reported PBM binding z-score greater than or equal to 1 here: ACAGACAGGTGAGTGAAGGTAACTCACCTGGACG
output: condition not met

input: Is the recorded value of PBM binding z-score equal to or greater than 1 for this sequence? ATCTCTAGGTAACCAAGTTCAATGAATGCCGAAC
output: condition met

input: Check the entry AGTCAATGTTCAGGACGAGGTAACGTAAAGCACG : does PBM binding z-score equal or exceed 1?
output: condition not met

input: Reported PBM binding z-score at or above 1? GCTCGGAGGACAACGTCAGAGCTTTGTCCGTAGA
output: condition not met

input: Decide: PBM binding z-score of GCTTACGGGTCAAAGGTTAGAGCATGAATAGAAT >= 1?
output: condition met

input: // inclusive: PBM binding z-score at least 1? input: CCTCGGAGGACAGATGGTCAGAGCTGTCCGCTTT
output: condition not met

input: Does PBM binding z-score meet or surpass 1 for CCGACTGGGCCATAAGGTTACCATAAGCCAGCCC ?
output: condition met

input: Record AATACAGGGTCATCGTAGGCAAGAGTACGCACAG ; criterion: PBM binding z-score no lower than 1. Met?
output: condition met

input: Determine whether this sequence has PBM binding z-score no lower than 1: TCAGACAGGTGAAGGTAACTCTGGTACGCAGTCG
output: condition not met

input: Does PBM binding z-score meet or surpass 1 for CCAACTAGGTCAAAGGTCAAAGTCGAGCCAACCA ?
output: condition met

input: Is PBM binding z-score for ATCTCTAAGTAAAGATAGTTCAGTGAATGCAAAT at or above 1?
output: condition met

input: Is reported PBM binding z-score greater than or equal to 1 here: GAAACGAGGGCAAGTTGATAGCAGAGTTTGATGG
output: condition not met

input: Exam item: decide whether the reported PBM binding z-score for GCTAGCATGCCATTTGGGTCACTCAATGACGGGC is at least 1.
output: condition not met

input: Can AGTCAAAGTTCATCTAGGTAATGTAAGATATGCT be said to have PBM binding z-score at or above 1?
output: condition met

input: Is reported PBM binding z-score greater than or equal to 1 here: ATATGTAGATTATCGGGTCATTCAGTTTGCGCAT
output: condition met

input: Is it the case that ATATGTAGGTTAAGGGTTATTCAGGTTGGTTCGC has PBM binding z-score reaching or exceeding 1?
output: condition met

input: Form field: PBM binding z-score at least 1? Entry: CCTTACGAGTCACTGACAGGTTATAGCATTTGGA
output: condition met

input: Does the sequence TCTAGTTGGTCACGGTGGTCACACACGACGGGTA have recorded PBM binding z-score that is 1 or more?
output: condition not met

input: Exam item: decide whether the reported PBM binding z-score for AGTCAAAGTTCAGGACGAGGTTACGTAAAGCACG is at least 1.
output: condition met

input: Hi, just wondering whether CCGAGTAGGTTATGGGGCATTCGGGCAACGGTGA shows PBM binding z-score of 1 or higher.
output: condition not met

input: Confirm if PBM binding z-score reported for the sequence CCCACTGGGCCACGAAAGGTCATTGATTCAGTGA is 1 or above.
output: condition met

input: Reported PBM binding z-score at or above 1? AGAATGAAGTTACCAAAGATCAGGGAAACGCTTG
output: condition not met

input: Quick check: does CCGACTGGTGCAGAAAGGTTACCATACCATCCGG have PBM binding z-score greater than or equal to 1?
output: condition met

input: State whether the measured PBM binding z-score reaches 1, counting equality as reaching it, for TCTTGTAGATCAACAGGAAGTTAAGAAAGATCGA
output: condition not met

input: Hi, just wondering whether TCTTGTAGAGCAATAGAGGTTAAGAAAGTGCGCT shows PBM binding z-score of 1 or higher.
output: condition met

----------
System: LXRa:RXRa (NR concentration 270 nM, RXRa partner concentration 90 nM)
Assay: PBM binding z-score (relative to random genomic background probes); higher = stronger binding; sequences stand for … in GC…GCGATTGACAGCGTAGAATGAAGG
readout name: PBM binding z-score
Just the number.

Measured PBM binding z-score of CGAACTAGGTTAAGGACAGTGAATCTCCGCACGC : 0.377

Per the records, this sequence ( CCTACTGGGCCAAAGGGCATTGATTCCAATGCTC ) has PBM binding z-score equal to 0.199

Measured PBM binding z-score, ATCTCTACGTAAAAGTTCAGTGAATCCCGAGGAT : 1.12

PBM binding z-score for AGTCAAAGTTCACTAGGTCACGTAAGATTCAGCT is 6.11

For record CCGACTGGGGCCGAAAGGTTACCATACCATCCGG the listed PBM binding z-score is 0.858

Short answer for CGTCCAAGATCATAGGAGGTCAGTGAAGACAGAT : PBM binding z-score was 2.77

Input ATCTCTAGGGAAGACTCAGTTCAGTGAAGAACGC . Output PBM binding z-score: 0.0835

Input CTCTAAAGGTCGTGCTCAGGTGAGTATACCAAAC . Output PBM binding z-score: 4.54

Consider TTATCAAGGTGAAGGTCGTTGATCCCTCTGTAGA . Its measured PBM binding z-score is 1.93

So, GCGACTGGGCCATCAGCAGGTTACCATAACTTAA ? Its PBM binding z-score was -0.767

The recorded PBM binding z-score for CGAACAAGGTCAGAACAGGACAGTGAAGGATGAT is 3.42

Entry GCTGCTAGGTCAGGTTGTTCAGCTAACGGGTACG — recorded PBM binding z-score = 0.82

Lab note: measured PBM binding z-score of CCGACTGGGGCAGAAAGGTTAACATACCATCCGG was 0.795

Notebook: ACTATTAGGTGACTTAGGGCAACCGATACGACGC , PBM binding z-score read as 0.424

The reported value for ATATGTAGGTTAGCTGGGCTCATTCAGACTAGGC in terms of PBM binding z-score is -0.146

// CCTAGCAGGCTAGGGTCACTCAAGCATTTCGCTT : PBM binding z-score value = 2.4

get_value(item= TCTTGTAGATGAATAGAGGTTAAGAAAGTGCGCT , readout=PBM binding z-score) returns 3.5

Record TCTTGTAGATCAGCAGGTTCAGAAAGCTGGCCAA . Reported PBM binding z-score: 0.323

Noted for CATACTGGGCCAAAGGTCATTGATTCCAATGCTC : its PBM binding z-score reads 5.39

Data point: TCTATTAGTTGACGGGCAACCGACGAGTCCGTTT ; PBM binding z-score = 0.776

Field PBM binding z-score (entry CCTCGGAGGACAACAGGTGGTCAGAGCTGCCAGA ) reads -0.519

# PBM binding z-score (sequence: AGAATGAGGTTATTAAGATCAGGGACTTGCGGTC ) is 1.49

The recorded PBM binding z-score for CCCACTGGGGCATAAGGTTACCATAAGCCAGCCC is 1.44

Recorded PBM binding z-score (sequence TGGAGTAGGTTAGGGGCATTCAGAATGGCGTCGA ): 0.934

Summary for this sequence, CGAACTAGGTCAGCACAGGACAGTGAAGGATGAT : PBM binding z-score is 1.18

Kindly note the recorded PBM binding z-score for TTACCAAGGTGAAGGTCGTTGTTCCCTCTGTAGA , which is 1.32

Per the record, ACTATTAGTTGAGCCGAGGGCAACCGATAGGTTG has PBM binding z-score of 0.0811

Value of PBM binding z-score reported for the sequence GATACAGGGTCAGCTAGAGGCCACAGTATGGAAA is 3.33

Measured PBM binding z-score of GCTTTTAGATCAAGGTTAAGAAAGACTAAGCTAA : 1.15

PBM binding z-score reading for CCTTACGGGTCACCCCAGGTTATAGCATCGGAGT : 6.63

The recorded PBM binding z-score for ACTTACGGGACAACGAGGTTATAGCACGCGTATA is 0.645

Per the records, this sequence ( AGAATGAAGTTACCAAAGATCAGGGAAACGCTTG ) has PBM binding z-score equal to 0.631

The value of PBM binding z-score measured for the sequence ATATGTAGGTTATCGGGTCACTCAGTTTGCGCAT turned out to be 2.95

Sample ATCTCTAGGTAAAGTTCAGTGTAAGATCGATAGA ; PBM binding z-score observed: 2.13

The sequence identified as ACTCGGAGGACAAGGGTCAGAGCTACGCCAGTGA registered its PBM binding z-score at 1.9

For this sequence ( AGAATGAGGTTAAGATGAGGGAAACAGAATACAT ), measured PBM binding z-score is 2.35

// field: PBM binding z-score; key: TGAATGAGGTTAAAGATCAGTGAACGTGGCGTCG ; value = 2.41

The sequence identified as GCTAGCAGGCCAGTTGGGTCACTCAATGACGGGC registered its PBM binding z-score at -0.319

Per the records, this sequence ( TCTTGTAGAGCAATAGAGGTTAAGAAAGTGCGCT ) has PBM binding z-score equal to 2.34

Recorded result, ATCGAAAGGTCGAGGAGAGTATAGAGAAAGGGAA , PBM binding z-score: 3.26

Form field PBM binding z-score, entry TCTCGGAGGAAACGAAGGTCAGAGCTTTCCAGAG : 0.556

Lab note: measured PBM binding z-score of TCATATAAGTAATACAGGTGAAAGTCGGCATCTA was 1.22

Looking up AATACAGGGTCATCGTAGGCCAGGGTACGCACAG , I found its PBM binding z-score recorded as 6.11

response.value for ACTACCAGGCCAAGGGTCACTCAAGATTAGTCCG (field: PBM binding z-score) = 3.11

Lab note: measured PBM binding z-score of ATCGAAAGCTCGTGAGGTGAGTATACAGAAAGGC was -0.537

So for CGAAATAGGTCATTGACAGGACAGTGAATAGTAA , the logged PBM binding z-score turned out to be 5.06

Looking up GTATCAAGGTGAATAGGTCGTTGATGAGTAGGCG , I found its PBM binding z-score recorded as 1.1

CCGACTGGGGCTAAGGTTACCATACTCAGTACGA yielded PBM binding z-score of 0.0677

So for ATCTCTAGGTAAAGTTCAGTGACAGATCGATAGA , the logged PBM binding z-score turned out to be 2.06

The sequence identified as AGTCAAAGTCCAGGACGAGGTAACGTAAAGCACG registered its PBM binding z-score at -0.424

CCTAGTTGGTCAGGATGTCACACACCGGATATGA yielded PBM binding z-score of -0.0235
